- System: brain-specific receptors of rats (3H-benzodiazepine binding)
- assay method text: Inhibition of the binding of 3H-benzodiazepine to brain-specific receptors of rats
- Design: species or system rat (Wistar strain)
- condition label: rat cortex P2-fraction; 3H-diazepam 1.5 nM or 3H-flunitrazepam 1.0 nM; pH 7.4; 30 min in ice; test concentration not given
property measured: % Inhibition (%)
Only the number, expressed in %, is required.

Below are worked cases with known answers.
O=C(c1ccncc1)c1cnn2c(-c3cccc(-n4ccnc4)c3)ccnc12 | 90
Cc1nccn1-c1cccc(-c2ccnc3c(C#N)cnn23)c1 | 88
O=C(c1cccs1)c1cnn2c(-c3cccc(-n4ccnc4)c3)ccnc12 | 100

Need % Inhibition of "Cc1cn(-c2cccc(-c3ccnc4c(C(=O)c5ccco5)cnn34)c2)cn1" , thanks.
98

Recorded % Inhibition of "Cc1nccn1-c1cccc(-c2ccnc3c(C(=O)c4ccccc4)cnn23)c1" , please.
98

Form field: reported % Inhibition of "Cc1nccn1-c1cccc(-c2ccnc3c(C(=O)c4cccs4)cnn23)c1"
99

Entry "Cc1cn(-c2cccc(-c3ccnc4c(C(=O)c5ccccc5)cnn34)c2)cn1" : reported % Inhibition = ?
93
